The measured values listed here are drawn from paper PMC4183595.

The following compounds are shown together with reported half-life values.
- Measurement description: Rat in vivo pharmacokinetics study after oral administration of product A, B or C
- Design: species or system Male Sprague-Dawley (SD) rats
- Assay conditions: male, Sprague-Dawley, rat, plasma, po, 10 mL·kg^−1, rats, oral product C, 10 mL·kg^−1; read-out: T 1/2z
Measured quantity: half-life

# Compound, Result
measured = [
    ("O=C(/C=C/c1ccc(O)c(O)c1)O[C@@H]1C[C@](O)(C(=O)O)C[C@@H](OC(=O)/C=C/c2ccc(O)c(O)c2)[C@H]1O", "7.33 h"),
    ("COC(=O)C1=CO[C@@H](O[C@@H]2O[C@H](CO)[C@@H](O)[C@H](O)[C@H]2O)[C@@H]2[C@@H](C)[C@@H](O)C[C@H]12", "7.33 h"),
    ("COc1cc(C2OCC3C(c4ccc(O[C@@H]5O[C@H](CO)[C@@H](O)[C@H](O)[C@H]5O)c(OC)c4)OCC23)ccc1O (stereo partly drawn) [Pinoresinol-β-D-glucoside]", "5.25 h"),
    ("COc1cc(C[C@H]2C(=O)OC[C@@H]2Cc2ccc(OC)c(OC)c2)ccc1O", "8.9 h"),
]
